Biological target: Tumor susceptibility gene 101 protein (Homo sapiens) (UniProt Q99816)
Sequence (Q99816 whole entry, looked up): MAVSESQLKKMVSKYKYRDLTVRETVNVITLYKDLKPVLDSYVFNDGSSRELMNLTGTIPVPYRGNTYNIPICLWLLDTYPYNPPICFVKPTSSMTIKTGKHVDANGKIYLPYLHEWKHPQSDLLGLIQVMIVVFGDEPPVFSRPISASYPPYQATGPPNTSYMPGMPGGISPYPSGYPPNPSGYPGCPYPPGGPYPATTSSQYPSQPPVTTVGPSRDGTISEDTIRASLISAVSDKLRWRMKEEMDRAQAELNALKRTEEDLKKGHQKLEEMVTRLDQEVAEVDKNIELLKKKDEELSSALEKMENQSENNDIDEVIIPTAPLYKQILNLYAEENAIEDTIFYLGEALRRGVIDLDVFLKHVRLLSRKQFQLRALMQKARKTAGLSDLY
Test: qHTS Validation Assay for Inhibitors of HIV-1 Budding by Blocking the Interaction of PTAP/TSG101: Sytravon Library Screen
Details: Fluorescence polarization, FITC-PTAP peptide/Tsg101, 20 min; series mostly up to 115 µM
Hit rate of the full screen: of about 44,000 compounds, fewer than 10 were called active. A selection follows.
MEASURED_QUANTITY: outcome

| COMPOUND | outcome |
| --- | --- |
| CCOC(=O)c1[nH]c(C)c(CCC(=O)NCc2ccccc2C)c1C | inactive |
| O=C(Nc1ccc(Oc2ccccc2)cc1)C1CCN(S(=O)(=O)c2ccc(Cl)cc2)CC1 | inactive |
| CCOc1ccccc1C(=O)Nc1ccc(S(=O)(=O)N2CCCCC2c2cccnc2)cc1 (stereo not given) | inactive |
| CCN(CC)S(=O)(=O)c1ccc(C(=O)N=c2sc3cccc(OC)c3n2C)cc1 | inactive |
| Cc1ccc2oc(=O)c3cnn(CC(=O)N4CCN(c5cccc(Cl)c5)CC4)c3c2c1 | inactive |

For each of the items listed, what is its outcome?
1. CCc1ccc(NC(=O)c2cnc3c(-c4ccccc4)c(C)nn3c2C)cc1
2. O=C(C1CCC(Cn2c(=O)c3sccc3n(Cc3ccccc3F)c2=O)CC1)N1CCCCC1 (stereo not given)

["inactive", "inactive"]

For each of the items listed, what is its outcome?
1. COc1cccc(CNC(=O)c2ccc3c(Cl)c4c(nc3c2)CCCC4)c1
2. CCc1cc2c(cc3c(=O)n(CC(=O)N4CCN(c5cc(Cl)ccc5C)CC4)ncn32)s1
3. COc1ccccc1-c1ccnc2[nH]n(-c3ccccc3)c(=O)c12
4. O=C(Nc1cc(Cl)cc(Cl)c1)c1ccc2c(c1)N(Cc1cccc(Cl)c1)C(=O)c1ccccc1S2=O (stereo not given)
5. CCc1ccc(CNC(=O)c2ccc(CS(=O)c3ccc(Br)cc3)o2)cc1 (stereo not given)
6. Cc1c(Cl)cccc1-c1ccc(CNCCCSc2nnnn2C)o1

1: inactive; 2: inactive; 3: inactive; 4: inactive; 5: inactive; 6: inactive

For each of the items listed, what is its outcome?
1. O=C(c1ccc2c(c1)N(Cc1ccccc1)C(=O)c1ccccc1S2(=O)=O)N1CCC(Cc2ccccc2)CC1
2. Cc1cccc(C(C)C)c1NC(=O)C(NS(=O)(=O)c1cccc2nsnc12)c1ccccc1 (stereo not given)
3. Cc1ccc(NC2=C(c3ccc(C(F)(F)F)cc3)C(=O)c3ccccc32)cc1F
4. CCOC(=O)C1CCC(CN(Cc2ccc(OC)cc2)S(=O)(=O)c2ccc(F)c(C(=O)Nc3cc(C)ccc3C)c2)CC1 (stereo not given)
5. COc1cc(CNCCSc2nnnn2C)ccc1OCc1ccc(Cl)cc1Cl
6. O=C(Nc1ccc2oc(-c3ccc(O)c(Br)c3)nc2c1)c1cc2ccccc2o1
7. Cc1cc2c(cc1C)C(c1cccc(OC(C)C)c1)CC(=O)N2 (stereo not given)

["inactive", "inactive", "inactive", "inactive", "inactive", "inactive", "inactive"]
